The compounds listed here are annotated with their inhibition.
# systemName: Hexose transporter 1 (Plasmodium falciparum)
# measurementDescription: ST_JUDE_LEISH: Cytotoxicity at 2uM final concentration against transgenic Leishmania Mexicana promastigotes LmPfHT that are glucose transport deficient and complemented with the Plasmodium falciparum hexose transporter. Activity is measured by DNA content using SYBR green in vitro
# Format: functional

Some entries whose results are on file:
smilesNotation: COc1cc2nc(Nc3ccc(N4CCOCC4)cc3)nc(N)c2cc1OC
quantityKind: inhibition
result: 2.3%
//
smilesNotation: COc1cc(-c2cc(-c3ccc(S(C)(=O)=O)cc3)cnc2N)ccc1O
quantityKind: inhibition
result: 6.34%

In plain terms, COc1ccc2nccc([C@@H](O)CN3CCC(NCCOc4cccc(C(F)(F)F)c4Cl)CC3)c2c1 has a documented inhibition of 12%

These entries and their values trace back to ChEMBL document CHEMBL3433997.
